assay: Toxicity in ip dosed albino Mus musculus (mouse) measured after 24 hr; assay type: organism-based; settings: in vivo, read-out: ALD50
measurementType: LD50 at 24 h

>>> experimentalresult("CCCCC1C(=O)N(c2ccccc2)N(c2ccccc2)C1=O")
"> 1000 mg/kg"
>>> experimentalresult("CC1=C(C(=O)Nc2ccc(F)cc2)C(c2ccc(F)cc2)n2c(s/c(=C/c3ccc(Cl)cc3)c2=O)=N1 (stereo not drawn)")
"> 1000 mg/kg"
>>> experimentalresult("CC1=C(C(=O)Nc2ccc(F)cc2)C(c2ccc(Cl)cc2)n2c(s/c(=C/c3ccc(F)cc3)c2=O)=N1 (stereo not drawn)")
"> 1000 mg/kg"
